Just for reference, paper PMC8092405 is where these values come from.

targetOrSystem: human G protein-coupled receptor 182 (GPR182) (human, UniProt O15218 1-404)
Sequence (O15218 whole entry): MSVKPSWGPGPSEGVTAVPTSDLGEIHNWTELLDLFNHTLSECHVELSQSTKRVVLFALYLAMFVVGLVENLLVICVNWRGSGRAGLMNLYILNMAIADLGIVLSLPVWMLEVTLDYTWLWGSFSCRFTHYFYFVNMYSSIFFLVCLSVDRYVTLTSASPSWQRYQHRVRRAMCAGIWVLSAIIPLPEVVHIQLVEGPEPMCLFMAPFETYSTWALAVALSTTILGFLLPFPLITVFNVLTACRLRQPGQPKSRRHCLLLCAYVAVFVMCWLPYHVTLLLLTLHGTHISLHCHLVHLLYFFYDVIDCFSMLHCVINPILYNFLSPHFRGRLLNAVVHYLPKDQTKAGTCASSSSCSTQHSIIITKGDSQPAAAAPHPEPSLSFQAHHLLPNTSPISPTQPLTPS
readoutKind: Ki (nM)

1 = human CXCL13, unlabeled (ligand) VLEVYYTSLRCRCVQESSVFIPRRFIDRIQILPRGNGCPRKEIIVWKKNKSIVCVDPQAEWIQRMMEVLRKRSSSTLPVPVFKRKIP
2 = human CCL19, unlabeled (ligand) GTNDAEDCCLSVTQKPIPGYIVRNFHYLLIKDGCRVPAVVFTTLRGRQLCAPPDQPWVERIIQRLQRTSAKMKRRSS
Please compare: 1 and 2 . Report which one has the smaller Ki value. # answer = label of selected item
1
(1: 9 nM, 2: 260 nM)
